- measuredOn: his-labeled human IL-13 (immunogen A) (human) (UniProt P35225)
- testDetails: FACS blocking, biotin-IL-13 on IL-13Ra2 HEK293 cells; antibody at 0.05 nM

binder | mean fluorescence intensity
29D9H8 (lead antibody, mouse hybridoma) (antibody, V domains shown, Mouse monoclonal antibody purified from hybridoma supernatant on Protein G) VH: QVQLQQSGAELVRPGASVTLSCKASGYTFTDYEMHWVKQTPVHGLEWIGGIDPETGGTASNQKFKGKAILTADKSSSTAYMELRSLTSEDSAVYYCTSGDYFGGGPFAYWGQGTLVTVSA VL: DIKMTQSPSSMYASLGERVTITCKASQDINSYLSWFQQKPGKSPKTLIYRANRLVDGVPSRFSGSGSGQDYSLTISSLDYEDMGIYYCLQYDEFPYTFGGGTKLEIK | 67.6
c29D9H8 (mouse-human chimeric IL-13 antibody) (antibody, V domains shown) VH: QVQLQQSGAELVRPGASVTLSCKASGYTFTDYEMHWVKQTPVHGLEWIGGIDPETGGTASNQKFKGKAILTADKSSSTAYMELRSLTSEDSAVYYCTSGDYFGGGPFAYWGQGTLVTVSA VL: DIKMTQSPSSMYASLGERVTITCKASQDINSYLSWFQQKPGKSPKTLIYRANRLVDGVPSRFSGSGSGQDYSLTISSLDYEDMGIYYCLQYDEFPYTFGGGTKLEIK | 81.6
28A2E11 (lead antibody, mouse hybridoma) (antibody, V domains shown, Mouse monoclonal antibody purified from hybridoma supernatant on Protein G) VH: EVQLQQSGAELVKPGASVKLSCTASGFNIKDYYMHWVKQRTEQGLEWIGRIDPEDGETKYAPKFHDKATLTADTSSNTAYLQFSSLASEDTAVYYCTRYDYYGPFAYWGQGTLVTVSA VL: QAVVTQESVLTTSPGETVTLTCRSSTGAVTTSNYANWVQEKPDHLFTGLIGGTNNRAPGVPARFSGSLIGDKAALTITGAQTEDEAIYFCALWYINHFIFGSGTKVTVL | 76.9
c70F10A10 (mouse-human chimeric IL-13 antibody) (antibody, V domains shown) VH: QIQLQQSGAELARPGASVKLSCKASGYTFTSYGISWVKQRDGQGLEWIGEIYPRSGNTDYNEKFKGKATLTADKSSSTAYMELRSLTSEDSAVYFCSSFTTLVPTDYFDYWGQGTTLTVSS VL: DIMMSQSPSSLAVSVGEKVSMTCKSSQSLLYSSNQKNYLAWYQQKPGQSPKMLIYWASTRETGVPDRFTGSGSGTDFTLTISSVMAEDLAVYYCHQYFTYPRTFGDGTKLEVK | 94
c28A2E11 (mouse-human chimeric IL-13 antibody) (antibody, V domains shown) VH: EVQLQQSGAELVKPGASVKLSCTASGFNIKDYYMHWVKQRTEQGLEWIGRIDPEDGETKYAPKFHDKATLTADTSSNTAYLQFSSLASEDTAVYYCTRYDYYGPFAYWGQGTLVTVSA VL: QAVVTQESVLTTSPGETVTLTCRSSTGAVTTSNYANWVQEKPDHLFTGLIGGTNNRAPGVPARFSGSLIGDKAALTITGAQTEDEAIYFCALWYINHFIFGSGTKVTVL | 97.8

Measured values drawn from patent US20190309059A1 for this set.
